System: Musca domestica
Assay details: Insecticidal test, Musca domestica (houseflies - adults), contact
Format: in vivo
Recorded conditions: 24 h, 100 ppm, cotton wool/sugar, 1 day, read-out: grading of mortality, MD
Procedure: The activity of the Product was determined using a variety of insect and acarine pests. The Product was used in the form of liquid preparations containing 500, 250 or 100 parts per million (ppm) by weight of the Product. The preparations were made by dissolving the Product in acetone and diluting the solutions with water containing 0.01% by weight of a wetting agent sold under the trade name "LISSAPOL" NX until the liquid preparations contained the required concentratio of the Product. […]
Measure: mortality at 100 ppm

- Compound: "FC(F)(F)Oc1ccc(C(COCc2cccc(Oc3ccccc3)n2)C(F)(F)F)cc1 (stereo not shown)"
  mortality at 100 ppm: "80 to 100%"
- Compound: "CCOc1ccc(C(O)(COCc2c(F)c(F)c(C)c(F)c2F)C(F)(F)F)cc1 (stereo not shown)"
  mortality at 100 ppm: "< 50%"
- Compound: "CCOc1ccc(C(F)(COCc2cccc(Oc3ccccc3)c2)C(F)(F)F)cc1 (stereo not shown)"
  mortality at 100 ppm: "50 to 79%"

Shifting focus to the compound that follows.
Inquiry: So what mortality at 100 ppm did CCOc1ccc(C(COCc2cccc(Oc3ccc(Cl)cc3)c2)C(F)(F)F)cc1F (stereo not shown) get with Musca domestica?
Reply text: 80 to 100%

###

Tested on: Musca domestica
Assay details: Insecticidal test, Musca domestica (houseflies - adults), contact
Assay type: in vivo
Recorded conditions: 24 h, 250 ppm, cotton wool/sugar, 1 day, read-out: grading of mortality, MD
Assignment: determine reported mortality at 250 ppm for the given compounds.

Observe how each entry below is paired with its result.
- Compound: "CCOc1ccc(C(Cl)(COCc2ccc(F)c(Oc3ccccc3)c2)C(F)(F)F)cc1 (centres unmarked) [Compound 40]"
  mortality at 250 ppm: "80 to 100%"
- Compound: "CCOc1ccc(C(F)(COCc2cccc(Oc3ccc(Cl)cc3)c2)C(F)(F)F)cc1 (centres unmarked) [Compound 79]"
  mortality at 250 ppm: "80 to 100%"

Respectfully, I request mortality at 250 ppm for each entry included below.
1. CCOc1ccc(C(F)(COCc2c(F)c(F)c(C)c(F)c2F)C(F)(F)F)cc1 (centres unmarked) [Compound 78]
2. Fc1ccc(C(COCc2ccc(F)c(Oc3ccccc3)c2)C(F)(F)F)cc1 (centres unmarked) [Compound 18]
3. CCOc1ccc(C(Cl)(COCc2cccc(Oc3ccc(Cl)cc3)c2)C(F)(F)F)cc1 (centres unmarked) [Compound 42]

Reply text:
1. < 50%
2. 80 to 100%
3. 80 to 100%

###

Test system: Diabrotica balteata
Assay details: Insecticidal test, Diabrotica balteata (rootworm larvae), residual
Type: in vivo
Recorded conditions: 72 h, 250 ppm, filter paper/maize seed, 3 days, read-out: grading of mortality, DB
Kindly state mortality at 250 ppm for each of the entries shown.

- Molecule: "CCOc1ccc(C(F)(COCc2ccc(F)c(Oc3ccccc3)c2)C(F)(F)F)cc1 (stereo not shown) [Compound 77]"
  mortality at 250 ppm: "80 to 100%"

Give one value of mortality at 250 ppm per listed molecule.
1. CCOc1ccc(C(Cl)(COCc2c(F)c(F)c(C)c(F)c2F)C(F)(F)F)cc1 (stereo not shown) [Compound 39]
2. CCOc1ccc(C(COCc2ccc(F)c(Oc3ccccc3)c2)(OC(C)=O)C(F)(F)F)cc1 (stereo not shown) [Compound 149]
3. CCOc1ccc(C(Cl)(COCc2coc(Cc3ccccc3)c2)C(F)(F)F)cc1 (stereo not shown) [Compound 45]

Reply text:
1. < 50%
2. < 50%
3. < 50%
